Items are presented alongside their recorded pIC50.
# Test system: MV4-11 cells
# protocolDetails: MV4-11 6-Day Cell Growth CTG (CellTiter-Glo) Assay
# Assay type: cell-based
# setupConditions: Homo sapiens, MV4-11, 144 h, MV4-11 cell growth CellTiter-Glo, 6 days
pIC50: −log10 of the molar value.

compound	pIC50
Nc1ncnc2c1ncn2Cc1c(N2CC[C@](N)(C(=O)NC3CC3)C2)ccc(C(F)(F)F)c1CN1CCC1 [Example 62]	> 5.70
Nc1ncnc2c1ncn2Cc1c(N2CC[C@](N)(C(=O)NC3CC3)C2)ccc(F)c1CN1CC(F)(F)C1 [Example 52]	> 5.70
N#CCN1CCN(C(=O)[C@@]2(N)CCN(c3ccc(F)c(C(F)(F)F)c3Cn3cnc4c(N)ncnc43)C2)CC1 [Example 136]	> 5.70
CN(C)Cc1c(Cl)c(Cl)cc(N2CC[C@](N)(C(=O)NC3CC3)C2)c1Cn1cnc2c(N)ncnc21 [Example 88]	> 5.70
Nc1ncnc2c1ncn2Cc1c(N2CC[C@](N)(C(=O)N3CCc4nocc4C3)C2)ccc(F)c1C(F)(F)F [Example 134]	> 5.70
CCc1cc(Cl)cc(N2CC[C@](N)(c3nc[nH]n3)C2)c1Cn1cnc2c(N)ncnc21 [Example 25]	> 5.70
Nc1ncnc2c1ncn2Cc1c([C@@H](O)C(F)(F)F)cc(Cl)cc1N1CC[C@](N)(C(=O)NC2CC2)C1 [Example 33]	< 5.52
Nc1ncnc2c1ncn2Cc1c(N2CC[C@](N)(C(=O)NC3CC3)C2)ccc(Cl)c1Cl [Example 144]	> 5.70
CCc1cc(-c2cnccn2)cc(N2CC[C@](N)(C(=O)NC3CC3)C2)c1Cn1cnc2c(N)ncnc21 [Example 100]	> 5.70
CCc1cc(-c2cccnc2)cc(N2CC[C@](N)(C(=O)NC3CC3)C2)c1Cn1cnc2c(N)ncnc21 [Example 95]	> 5.70
CCc1c(C#N)c(Cl)cc(N2CC[C@](N)(C(=O)NC3CC3)C2)c1Cn1cnc2c(N)ncnc21 [Example 101]	5.52 to 5.70
CCc1c(Cl)ccc(N2CC[C@](N)(C(=O)NC3CC3)C2)c1Cn1cnc2c(N)ncnc21 [Example 165]	> 5.70
COc1ccc(N2CC[C@](N)(C(=O)NC3CC3)C2)c(Cn2cnc3c(N)ncnc32)c1Br [Example 168]	> 5.70
Nc1ncnc2c1ncn2Cc1c(N2CC[C@](N)(C(=O)NC3CC3)C2)ccc(F)c1CN1CCCC(F)(F)C1 [Example 69]	> 5.70
[2H]C([2H])([2H])C([2H])([2H])NC(=O)[C@@]1(N)CCN(c2cc(Cl)cc(Br)c2Cn2cnc3c(N)ncnc32)C1 [Example 159]	5.52 to 5.70

----------
# targetUnderTest: wild type MLL1 four-member complex (MLL1-4C) (Homo sapiens, UniProt Q03164)
# protocolDetails: MLL1 LC-MS Assay
# Type: biochemical
# setupConditions: read-out: LCMS
pIC50: −log10 of the molar value.

compound	pIC50
Nc1ncnc2c1ncn2Cc1c(N2CC[C@](N)(C(=O)NC3CC3)C2)ccc(F)c1C1CC1 [Example 8]	7.00 to 7.30
Nc1ncnc2c1ncn2Cc1c(N2CC[C@@](N)(CO)C2)ccc2ccccc12 [Example 106]	> 7.30
[2H]C([2H])([2H])OCc1c(Cl)ccc(N2CC[C@](N)(C(=O)NC3CC3)C2)c1Cn1cnc2c(N)ncnc21 [Example 81]	> 7.30
Nc1ncnc2c1ncn2Cc1c(N2CC[C@](N)(CCc3ccccn3)C2)ccc(F)c1C(F)(F)F [Example 28]	< 7.00
CCc1cc(Cl)cc(N2CC[C@](N)(C(=O)NC3CC3)C2)c1Cn1cnc2c(N)ncnc21 [Example 2]	> 7.30
Nc1ncnc2c1ncn2Cc1c(N2CC[C@](N)(C(=O)N3CCn4nncc4C3)C2)ccc(F)c1C(F)(F)F [Example 128]	< 7.00
Nc1ncnc2c1ncn2Cc1c(N2CC[C@](N)(C(=O)NC3CC3)C2)ccc(F)c1CNC1CC1 [Example 54]	< 7.00
Nc1ncnc2c1ncn2Cc1c(N2CC[C@](N)(C(=O)NC3CC3)C2)ccc(F)c1CN1CCC1 [Example 70]	7.00 to 7.30

----------
# targetUnderTest: wild type MLL1 four-member complex (MLL1-4C) (Homo sapiens)
# protocolDetails: MLL1 LC-MS Assay
# Type: biochemical
# setupConditions: read-out: LCMS

compound	IC50
Nc1ncnc2c1ncn2Cc1c(N2CC[C@](N)(C(=O)NC3CC3)C2)ccc(F)c1CO [Example 76]	50 to 100 nM
Nc1ncnc2c1ncn2Cc1c(N2CC[C@](N)(C(=O)NC3CC3)C2)ccc(F)c1CN1CCOCC1 [Example 65]	< 50 nM
CN(C)Cc1cc(Cl)c(Cl)c(N2CC[C@](N)(C(=O)NC3CC3)C2)c1Cn1cnc2c(N)ncnc21 [Example 89]	> 100 nM
Nc1ncnc2c1ncn2Cc1c(N2CC[C@](N)(C(=O)NC3CC3)C2)ccc(F)c1CN1CC[C@@H](F)C1 [Example 50]	< 50 nM
Nc1ncnc2c1ncn2Cc1c(N2CC[C@](N)(C(=O)NC3CC3)C2)cc(Cl)c(Cl)c1CN1CCOCC1 [Example 105]	< 50 nM
CC(C)(C#N)CNC(=O)[C@@]1(N)CCN(c2ccc(F)c(C(F)(F)F)c2Cn2cnc3c(N)ncnc32)C1 [Example 125]	< 50 nM
CCc1cc(-c2cnccn2)cc(N2CC[C@](N)(C(=O)NC3CC3)C2)c1Cn1cnc2c(N)ncnc21 [Example 100]	< 50 nM

----------
# targetUnderTest: wild type MLL1 four-member complex (MLL1-4C) (Homo sapiens, UniProt Q03164)
# protocolDetails: MLL1 LC-MS Assay
# Assay type: biochemical
# setupConditions: read-out: LCMS
Measured IC50, listed per entry for reference.
quantityName: IC50

compound	recordedResult
CCc1cc(-c2cccnc2)cc(N2CC[C@](N)(C(=O)NC3CC3)C2)c1Cn1cnc2c(N)ncnc21 [Example 95]	< 0.05 µM
CCc1c(C(F)(F)F)ccc(N2CC[C@](N)(C(=O)NC3CC3)C2)c1Cn1cnc2c(N)ncnc21 [Example 12]	0.05 to 0.1 µM
Nc1ncnc2c1ncn2Cc1c(Br)c(F)c2c(c1N1CC[C@](N)(C(=O)NC3CC3)C1)OCC2 [Example 20]	< 0.05 µM
CN(Cc1c(F)ccc(N2CC[C@](N)(C(=O)NC3CC3)C2)c1Cn1cnc2c(N)ncnc21)C1CC1 [Example 48]	> 0.1 µM
Nc1ncnc2c1ncn2Cc1c(-c2ccc3c(c2)CCO3)cc(Cl)cc1N1CC[C@](N)(C(=O)NC2CC2)C1 [Example 3]	> 0.1 µM
CCNC(=O)CC[C@@]1(N)CCN(c2cc(Cl)cc(Br)c2Cn2cnc3c(N)ncnc32)C1 (single isomer, unassigned) [Example 36]	0.05 to 0.1 µM
CCc1c(Cl)cc(Cl)c(N2CC[C@](N)(C(=O)N3CCS(=O)(=O)CC3)C2)c1Cn1cnc2c(N)ncnc21 [Example 73]	> 0.1 µM
Nc1ncnc2c1ncn2Cc1c(N2CC[C@](N)(C(=O)NC3CC3)C2)ccc(F)c1CNCC(F)(F)F [Example 57]	0.05 to 0.1 µM
Nc1ncnc2c1ncn2Cc1c(Br)cc(Cl)cc1N1CC[C@](N)(CCc2nn[nH]n2)C1 (single isomer, unassigned) [Example 39]	< 0.05 µM
Cc1c(C(F)(F)F)ccc(N2CC[C@](N)(C(=O)NC3CC3)C2)c1Cn1cnc2c(N)ncnc21 [Example 11]	< 0.05 µM
CN(C)Cc1c(C(F)(F)F)ccc(N2CC[C@](N)(C(=O)NC3CC3)C2)c1Cn1cnc2c(N)ncnc21 [Example 47]	< 0.05 µM
Nc1ncnc2c1ncn2Cc1c(N2CC[C@](N)(C(=O)NC3CC3)C2)cc(CN2CCOCC2)c(F)c1Cl [Example 103]	< 0.05 µM
CS[C@H]1C[C@H](NC(=O)[C@@]2(N)CCN(c3ccc(F)c(C(F)(F)F)c3Cn3cnc4c(N)ncnc43)C2)C1 [Example 117]	< 0.05 µM
CN(C)Cc1c(F)ccc(N2CC[C@](N)(C(=O)N[C@H]3C[C@@H]3c3ccccc3)C2)c1Cn1cnc2c(N)ncnc21 [Example 49]	< 0.05 µM
Nc1ncnc2c1ncn2Cc1c(N2CC[C@](N)(C(=O)NC3CC3)C2)ccc(F)c1CN1CCC(F)CC1 [Example 56]	0.05 to 0.1 µM
COC[C@@]1(N)CCN(c2ccc3ccccc3c2Cn2cnc3c(N)ncnc32)C1 [Example 109]	0.05 to 0.1 µM
CCc1c(C#N)c(Cl)cc(N2CC[C@](N)(C(=O)NC3CC3)C2)c1Cn1cnc2c(N)ncnc21 [Example 101]	< 0.05 µM
CCc1cc(-c2cccs2)cc(N2CC[C@](N)(C(=O)NC3CC3)C2)c1Cn1cnc2c(N)ncnc21 [Example 93]	< 0.05 µM
Nc1ncnc2c1ncn2Cc1c(N2CC[C@](N)(C(=O)NCCc3c[nH]cn3)C2)ccc(F)c1C(F)(F)F [Example 121]	< 0.05 µM
N#CCN1CCN(C(=O)[C@@]2(N)CCN(c3ccc(F)c(C(F)(F)F)c3Cn3cnc4c(N)ncnc43)C2)CC1 [Example 136]	0.05 to 0.1 µM
Nc1ncnc2c1ncn2Cc1c(N2CC[C@](N)(C(=O)NC3CC3)C2)ccc(F)c1CN1CC[C@H](F)C1 [Example 68]	< 0.05 µM
Nc1ncnc2c1ncn2Cc1c(I)c(F)c2c(c1N1CC[C@](N)(C(=O)NC3CC3)C1)OCC2 [Example 111]	< 0.05 µM
N#CCC1CCN(C(=O)[C@@]2(N)CCN(c3ccc(F)c(C(F)(F)F)c3Cn3cnc4c(N)ncnc43)C2)CC1 [Example 119]	0.05 to 0.1 µM
CN(C)Cc1c(Cl)ccc(N2CC[C@](N)(C(=O)NC3CC3)C2)c1Cn1cnc2c(N)ncnc21 [Example 60]	0.05 to 0.1 µM
CC1(C)Cc2ccc(N3CC[C@](N)(C(=O)NC4CC4)C3)c(Cn3cnc4c(N)ncnc43)c2O1 [Example 114]	> 0.1 µM
Nc1ncnc2c1ncn2Cc1c(N2CC[C@](N)(C(=O)NC3CC3)C2)ccc(F)c1C(O)C(F)(F)F (single isomer, unassigned) [Example 82]	> 0.1 µM
CCc1cc(Cl)cc(N2CC[C@](N)(CO)C2)c1Cn1cnc2c(N)ncnc21 [Example 108]	< 0.05 µM
Nc1ncnc2c1ncn2Cc1cc(F)ccc1N1CC[C@](N)(C(=O)NC2CC2)C1 [Example 14]	> 0.1 µM
CCSc1c(Cl)ccc(N2CC[C@](N)(C(=O)NC3CC3)C2)c1Cn1cnc2c(N)ncnc21 [Example 113]	< 0.05 µM
COCc1c(Cl)ccc(N2CC[C@](N)(C(=O)NC3CC3)C2)c1Cn1cnc2c(N)ncnc21 [Example 78]	< 0.05 µM
Nc1nccc(CNC(=O)[C@@]2(N)CCN(c3ccc(F)c(C(F)(F)F)c3Cn3cnc4c(N)ncnc43)C2)n1 [Example 133]	0.05 to 0.1 µM
